- System: Stenotrophomonas maltophilia
- experiment-summary: Minimum protective concentration against beta-lactamase of Xanthomonas maltophilia GN 12873 (CXase-I)
- Type: functional
// returns class 0 unless MPC is strictly below 30 µg/mL, in which case class 1

A selection of reference data follows.
Problem: Decide: MPC of CC1(C)S[C@@H]2[C@H](NC(=O)Cc3ccccc3)C(=O)N2[C@H]1C(=O)O [PENICILLIN G] strictly below 30 µg/mL?
Result: class 1

Problem: Decide: MPC of O=C(Cc1ccccc1)N[C@@H]1C(=O)N2C(C(=O)O)=C(C(=O)O)C[C@H]12 (racemic) strictly below 30 µg/mL?
Result: class 1

Problem: Decide: MPC of O=C(Cc1ccccc1)N[C@@H]1C(=O)N2C(C(=O)O)=C(CCO)C[C@H]12 (racemic) strictly below 30 µg/mL?
Result: class 0

Further cases:
Problem: Decide: MPC of CC(=O)OCCC1=C(C(=O)O)N2C(=O)[C@@H](NC(=O)Cc3ccccc3)[C@H]2C1 (racemic) strictly below 30 µg/mL?
Result: class 1

Problem: Decide: MPC of COC(=O)C1=C(C(=O)O)N2C(=O)[C@@H](NC(=O)Cc3ccccc3)[C@H]2C1 (racemic) strictly below 30 µg/mL?
Result: class 1

Problem: Decide: MPC of C[C@@H](O)[C@H]1C(=O)N2C(C(=O)O)=C(SCCNC=N)C[C@H]12.O [IMIPENEM] strictly below 30 µg/mL?
Result: class 0

###

MIC reference
- experiment-summary: In vitro antimicrobial activity against Xanthomonas maltophilia GN 12873 was determined
- Format: functional
- experimental-conditions: Stenotrophomonas maltophilia
Answer with a number only, understood to be in µg/mL.

Known MIC results, listed for orientation:
Problem: Which value of MIC has been reported for O=C(Cc1ccccc1)N[C@@H]1C(=O)N2C(C(=O)O)=C(C(=O)O)C[C@H]12 (racemic) in the records?
Result: 9.61

Problem: Which value of MIC has been reported for O=C(Cc1ccccc1)N[C@@H]1C(=O)N2C(C(=O)O)=C(CCO)C[C@H]12 (racemic) in the records?
Result: 6.73

Problem: Which value of MIC has been reported for O=C(Cc1ccccc1)N[C@@H]1C(=O)N2C(C(=O)O)=CC[C@H]12 (racemic) in the records?
Result: 10.3

Problem: Which value of MIC has been reported for CC(=O)OCCC1=C(C(=O)O)N2C(=O)[C@@H](NC(=O)Cc3ccccc3)[C@H]2C1 (racemic) in the records?
Result: 4.12

Problem: Which value of MIC has been reported for COC(=O)C1=C(C(=O)O)N2C(=O)[C@@H](NC(=O)Cc3ccccc3)[C@H]2C1 (racemic) in the records?
Result: 12.1

Field: next compound
Problem: Which value of MIC has been reported for COC(=O)CC1=C(C(=O)O)N2C(=O)[C@@H](NC(=O)Cc3ccccc3)[C@H]2C1 (racemic) in the records?
Result: 5.97

###

- Tested on: Stenotrophomonas maltophilia
- experiment-summary: Minimum protective concentration against beta-lactamase of Xanthomonas maltophilia GN 12873 (CXase-II)
- Type: functional
experimental-readout: MPC (µg/mL)
Answer with a number only, understood to be in µg/mL.

Problem: Which value of MPC has been reported for CC1(C)S[C@@H]2[C@H](NC(=O)Cc3ccccc3)C(=O)N2[C@H]1C(=O)O [PENICILLIN G] in the records?
Result: 28.8

Problem: Which value of MPC has been reported for O=C(Cc1ccccc1)N[C@@H]1C(=O)N2C(C(=O)O)=C(C(=O)O)C[C@H]12 (racemic) in the records?
Result: 29.4

Problem: Which value of MPC has been reported for O=C(Cc1ccccc1)N[C@@H]1C(=O)N2C(C(=O)O)=CC[C@H]12 (racemic) in the records?
Result: 33.6

Problem: Which value of MPC has been reported for COC(=O)CC1=C(C(=O)O)N2C(=O)[C@@H](NC(=O)Cc3ccccc3)[C@H]2C1 (racemic) in the records?
Result: 35

Problem: Which value of MPC has been reported for C[C@@H](O)[C@H]1C(=O)N2C(C(=O)O)=C(SCCNC=N)C[C@H]12.O [IMIPENEM] in the records?
Result: 0.87

Problem: Which value of MPC has been reported for O=C(Cc1ccccc1)N[C@@H]1C(=O)N2C(C(=O)O)=C(CCO)C[C@H]12 (racemic) in the records?
Result: 42.1

Problem: Which value of MPC has been reported for CC(=O)OCCC1=C(C(=O)O)N2C(=O)[C@@H](NC(=O)Cc3ccccc3)[C@H]2C1 (racemic) in the records?
Result: 47.8

Field: next compound
Problem: Which value of MPC has been reported for COC(=O)C1=C(C(=O)O)N2C(=O)[C@@H](NC(=O)Cc3ccccc3)[C@H]2C1 (racemic) in the records?
Result: 16.7
